System: SK-Mel-28
Method Notes: Anti-proliferative activity, cell-titre luminescent viability assay
Type: cell-based
Condition Info: Homo sapiens, SK-MEL-28; 72 hours; 0.1, 0.3, 1, 3, 10 and 30 μM; nonlinear regression sigmoidal dose-response (EC50); read-out: IC50 Melanoma SK-Mel-28
Answer each item with its documented pIC50.
One number for each entry, as −log10 of the molar value.

Sample records with pIC50:
Compound	pIC50
Cc1c(C)n(CCCN2CCN(C)CC2)c2ccc(Cc3cccc(C(=O)N4CCN(CCc5cccc6ccccc56)CC4)c3)cc12	5.66
COc1ccc2cc(CCN3CCN(C(=O)c4cccc(Cc5ccc6c(c5)c(C)c(C)n6CCCN5CCN(C)CC5)c4)CC3)ccc2c1	5.48
COc1ccc(CCN2CCN(C(=O)c3ccc(Oc4ccc5c(c4)c(C)c(C)n5CCCN4CCN(C)CC4)cc3)CC2)cc1	5.32

Would you mind listing pIC50 for each of the following compounds?
1. Cc1c(C)n(CCCN2CCN(C)CC2)c2ccc(Oc3cccc(C(=O)N4CCN(CCc5cccc(F)c5)CC4)c3)cc12
2. Cc1c(C)n(CCCN2CCN(C)CC2)c2ccc(Cc3cccc(C(=O)N4CCN(CCc5cccc(F)c5)CC4)c3)cc12
3. COc1ccc2cc(CCN3CCN(C(=O)c4ccc(Cc5ccc6c(c5)c(C)c(C)n6CCCN5CCN(C)CC5)cc4)CC3)ccc2c1
4. Cc1c(C)n(CCCN2CCN(C)CC2)c2ccc(Oc3ccc(C(=O)N4CCN(CCc5ccccc5)CC4)cc3)cc12
5. Cc1c(C)n(CCCN2CCN(C)CC2)c2ccc(Cc3ccc(C(=O)N4CCN(CCc5cccc6ccccc56)CC4)cc3)cc12

5.31
5.96
5.70
5.41
5.14

Working through the 2 compounds below one at a time, give pIC50 for each.
1. Cc1c(C)n(CCCN2CCN(C)CC2)c2ccc(Oc3cccc(C(=O)N4CCN(CCc5ccc6c(c5)OCO6)CC4)c3)cc12
2. COc1cccc(CCN2CCN(C(=O)c3cccc(Oc4ccc5c(c4)c(C)c(C)n5CCCN4CCN(C)CC4)c3)CC2)c1

1. 5.29
2. 5.19

Each compound below has a reported value. Please supply its pIC50.
1. COc1ccc(CCN2CCN(C(=O)c3cccc(Cc4ccc5c(c4)c(C)c(C)n5CCCN4CCN(C)CC4)c3)CC2)cc1
2. Cc1c(C)n(CCCN2CCN(C)CC2)c2ccc(Oc3ccc(C(=O)N4CCN(CCc5ccc6c(c5)OCO6)CC4)cc3)cc12
3. Cc1c(C)n(CCCN2CCN(C)CC2)c2ccc(Oc3ccc(C(=O)N4CCN(CCc5cccc(F)c5)CC4)cc3)cc12
4. Cc1c(C)n(CCCN2CCN(C)CC2)c2ccc(Cc3ccc(C(=O)N4CCN(CCc5ccc(F)cc5)CC4)cc3)cc12
5. Cc1c(C)n(CCCN2CCN(C)CC2)c2ccc(Oc3ccc(C(=O)N4CCN(CCc5ccc(F)cc5)CC4)cc3)cc12

1: 5.59; 2: 5.39; 3: 5.42; 4: 5.60; 5: 5.77
